molecular target: NRF2/Keap1 (Homo sapiens, UniProt Q14145); construct: full length NRF2 protein and full length Keap1 protein (Keap1 exists a dimer) are used; experiment: NRF2-Keap1 TR-FRET Assay (full length NRF2 and full length Keap1); type: binding; details: 25 nM Keap1-FlagHis, 50 nM biotin-NRF2 added
Sequence (Q14145 whole entry): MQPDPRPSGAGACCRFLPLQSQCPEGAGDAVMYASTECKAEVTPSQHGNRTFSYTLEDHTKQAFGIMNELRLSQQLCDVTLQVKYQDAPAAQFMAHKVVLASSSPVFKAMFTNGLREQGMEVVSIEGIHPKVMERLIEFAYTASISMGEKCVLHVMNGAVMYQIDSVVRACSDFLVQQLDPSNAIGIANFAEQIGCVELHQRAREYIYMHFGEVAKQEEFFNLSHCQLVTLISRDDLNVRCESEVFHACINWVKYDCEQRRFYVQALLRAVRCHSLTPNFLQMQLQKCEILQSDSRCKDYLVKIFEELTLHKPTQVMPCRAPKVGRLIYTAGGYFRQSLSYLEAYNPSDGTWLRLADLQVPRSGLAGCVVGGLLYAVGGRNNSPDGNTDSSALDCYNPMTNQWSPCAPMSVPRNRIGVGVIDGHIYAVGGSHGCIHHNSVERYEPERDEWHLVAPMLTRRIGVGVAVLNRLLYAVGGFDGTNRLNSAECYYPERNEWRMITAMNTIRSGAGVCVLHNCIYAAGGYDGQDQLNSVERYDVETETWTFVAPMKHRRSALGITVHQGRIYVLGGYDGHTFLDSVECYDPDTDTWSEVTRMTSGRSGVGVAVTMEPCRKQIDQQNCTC
measuredEndpoint: IC50

Example entries begin here.
molecule | experimentalSystem | IC50
CCCCC1CCCN1C(=O)C1CCCC(c2cccc(-n3ncc(C(=O)O)c3C3CC3)c2)C1 (racemic) [Example 8c] | NRF2/Keap1 (Homo sapiens, UniProt Q14145) | 100 to 1000 nM
CCCCC1CCCN1C(=O)C1CCCC(c2cccc(-n3ncc(C(=O)O)c3C3CC3c3cn(C)nn3)c2)C1 (stereo not shown) [Example 42] | NRF2/Keap1 (Homo sapiens, UniProt Q14145) | 100 to 1000 nM
CC(C)CCC1CCCN1C(=O)C1CCCC(c2cccc(-n3ncc(C(=O)O)c3C3CC3)c2)C1 (racemic) [Example 11] | NRF2/Keap1 (Homo sapiens, UniProt Q14145) | 100 to 1000 nM
CCCC[C@@H]1CCCN1C(=O)[C@H]1CCC[C@@H](c2cccc(-n3ncc(C(=O)O)c3C3CC3)c2)C1 [Example 17f] | NRF2/Keap1 (Homo sapiens, UniProt Q14145) | 10 to 100 nM
CCCC1CCCCC1N(C)C(=O)C1CCCC(c2cccc(-n3ncc(C(=O)O)c3C3CC3)c2)C1 (stereo not shown) [Example 22] | NRF2/Keap1 (Homo sapiens, UniProt Q14145) | 1000 to 10000 nM

get_value(item= CC1CCc2cnn([C@@H]3CCC[C@H](c4cccc(-n5ncc(C(=O)O)c5C5CC5)c4)C3)c21 (mixture of isomers) [Example 14] , readout=IC50) returns 1000 to 10000 nM

According to the records, this molecule CN(C(=O)C1CCCC(c2cccc(-n3ncc(C(=O)O)c3C3CC3)c2)C1)C1CCCCC1 (stereo not shown) [Example 21] displays IC50 of 1000 to 10000 nM
